# test summary: Inhibition of trypsin
# maps each entry to its IC50
Number only, in µM; omit the unit.

CC(=O)O[C@H](Cc1ccc(O)cc1)C(=O)N[C@H](Cc1ccccc1)C(=O)N1[C@@H](C(=O)NCCCCNC(=N)N)C[C@H]2CC[C@@H](O)C[C@H]21 ... 19.9
CC(=O)O[C@@H]1CC[C@@H]2C[C@H](C(N)=O)N(C(=O)[C@@H](Cc3ccc(O)cc3)NC(=O)[C@@H](O)Cc3ccc(O)cc3)[C@@H]2C1 ... 45.5

*Q* Requested field: IC50. Item: `N=C(N)NCCCCNC(=O)[C@H]1C[C@H]2CC[C@@H](O)C[C@H]2N1C(=O)[C@@H](Cc1ccccc1)NC(=O)[C@@H](O)Cc1ccc(O)cc1`
*A* 1.9

*Q* # lookup: IC50 of `CC(C)C[C@@H](NC(=O)[C@H](O)Cc1ccc(O)cc1)C(=O)N[C@@H](Cc1ccccc1)C(=O)NCCCCNC(=N)N`
*A* 45.5

*Q* So what does the record say about IC50 for `N=C(N)NCCCCNC(=O)[C@H]1C[C@H]2CC[C@@H](O)C[C@H]2N1C(=O)[C@@H](Cc1ccccc1)NC(=O)[C@H](O)Cc1ccc(O)cc1` ?
*A* 1.3
